Source of measurements: paper PMC8308625

test system: L. amazonensis; test: Growth inhibition of L. amazonensis promastigotes (resazurin); conditions: read-out: EC50 ± SD L. amaz; Table 4, curcuminoids
# maps each entry to its EC50
Endpoint name: EC50 (µM)

[[record]]
entry_smiles = "O=C(C=Cc1ccco1)C=Cc1ccco1"
experimental_target = "L. amazonensis"
endpoint_name = "EC50"
reported_measurement = 10

[[record]]
entry_smiles = "O=C1C(=CC=Cc2ccco2)CCC1=CC=Cc1ccco1"
experimental_target = "L. amazonensis"
endpoint_name = "EC50"
reported_measurement = 18

[[record]]
entry_smiles = "O=C1C(=Cc2ccccc2)CCCC1=Cc1ccccc1"
experimental_target = "L. amazonensis"
endpoint_name = "EC50"
reported_measurement = 5

[[record]]
entry_smiles = "CC(C=CC(=O)C=CC(C)=Cc1ccco1)=Cc1ccco1"
experimental_target = "L. amazonensis"
endpoint_name = "EC50"
reported_measurement = 16

